assayed-target: human recombinant Yes [a.a. 2–543 (end)] (Homo sapiens)
Construct: human recombinant Yes [a.a; 2–543 (end)]; purchased BPS Bioscience 40488
experiment: ADP-Glo kinase assay, inhibition rates of Yes phosphorylation activity (first and second screening)
Type: biochemical
measurement-context: first screening; mean of n = 4 wells; 10 μmol L−1 compound
result-type: First screening IR (inhibition rate) (%)

INSERT INTO assay_data (molecule, assayed_target, reported) VALUES
  ('O=C(CSc1ccc(S(=O)(=O)N2CCCC2)cn1)c1ccc2c(c1)OCO2', 'human recombinant Yes [a.a. 2–543 (end)] (Homo sapiens)', 12),
  ('Cc1nc(NC(=O)c2cccc(NC(N)=O)c2)sc1SCC#N', 'human recombinant Yes [a.a. 2–543 (end)] (Homo sapiens)', -2),
  ('Cc1nc(-c2ccc(CNC(=O)Cc3cccc(F)c3)o2)cs1', 'human recombinant Yes [a.a. 2–543 (end)] (Homo sapiens)', -7),
  ('O=C(CN1CCOCC1)N1CCN(Cn2nc(-c3ccccc3)n(-c3ccc(F)cc3)c2=S)CC1', 'human recombinant Yes [a.a. 2–543 (end)] (Homo sapiens)', -5),
  ('O=C(C1=C(O)C(=O)N(CCCn2ccnc2)C1c1ccc(Cl)cc1)c1ccco1 (stereo not shown)', 'human recombinant Yes [a.a. 2–543 (end)] (Homo sapiens)', 20),
  ('CCS(=O)(=O)Nc1ccc(C2=NN(S(=O)(=O)c3ccc(C)cc3)C(c3ccco3)C2)cc1 (stereo not shown)', 'human recombinant Yes [a.a. 2–543 (end)] (Homo sapiens)', 23),
  ('CCCn1c(=O)[nH]c(=O)c2cc(C(=O)N(CC)Cc3ccc4c(c3)OCO4)cnc21', 'human recombinant Yes [a.a. 2–543 (end)] (Homo sapiens)', 5),
  ('CC(C)c1ccc(N2C(=O)Cc3c2nc(N)c2c(N)nc(N4CCCC4)c(C#N)c32)cc1', 'human recombinant Yes [a.a. 2–543 (end)] (Homo sapiens)', 6),
  ('N#Cc1ccc(CN2CCN(Cc3c(-c4ccccc4)nc4sccn34)CC2)cc1', 'human recombinant Yes [a.a. 2–543 (end)] (Homo sapiens)', -31),
  ('NC(=O)Nc1ccc(-c2csc(CCc3ccccc3)n2)cc1', 'human recombinant Yes [a.a. 2–543 (end)] (Homo sapiens)', 0),
  ('CCc1ccccc1NC(=O)CNC(=O)c1cc2ccccc2[nH]1', 'human recombinant Yes [a.a. 2–543 (end)] (Homo sapiens)', 48),
  ('CCN(CC)c1ccc([N+](=O)[O-])cc1C(=O)Nc1ccc2nc(N3CCOCC3)sc2c1', 'human recombinant Yes [a.a. 2–543 (end)] (Homo sapiens)', 9),
  ('Brc1ccc(/C=C2/CCCc3c2nc2ncnn2c3-c2ccc(Br)cc2)cc1', 'human recombinant Yes [a.a. 2–543 (end)] (Homo sapiens)', 3),
  ('Cc1n[nH]c(C)c1/C=C/C(=O)c1ccc(N2CCCC2=O)cc1', 'human recombinant Yes [a.a. 2–543 (end)] (Homo sapiens)', 6),
  ('Cc1cc(C)c(NC(=O)c2cn3c4c(c(N5CCN(C)CC5)c(F)cc4c2=O)OCC3C)c(C)c1 (stereo not shown)', 'human recombinant Yes [a.a. 2–543 (end)] (Homo sapiens)', 9),
  ('COc1ccc(CCNC(=O)C(C#N)c2nc3ccccc3nc2N2CCN(Cc3ccccc3)CC2)cc1 (stereo not shown)', 'human recombinant Yes [a.a. 2–543 (end)] (Homo sapiens)', 3);

---

assayed-target: human recombinant Yes [a.a. 2–543 (end)] (Homo sapiens, UniProt P07947)
Construct: human recombinant Yes [a.a; 2–543 (end)]; purchased BPS Bioscience 40488
Sequence (P07947 2-543): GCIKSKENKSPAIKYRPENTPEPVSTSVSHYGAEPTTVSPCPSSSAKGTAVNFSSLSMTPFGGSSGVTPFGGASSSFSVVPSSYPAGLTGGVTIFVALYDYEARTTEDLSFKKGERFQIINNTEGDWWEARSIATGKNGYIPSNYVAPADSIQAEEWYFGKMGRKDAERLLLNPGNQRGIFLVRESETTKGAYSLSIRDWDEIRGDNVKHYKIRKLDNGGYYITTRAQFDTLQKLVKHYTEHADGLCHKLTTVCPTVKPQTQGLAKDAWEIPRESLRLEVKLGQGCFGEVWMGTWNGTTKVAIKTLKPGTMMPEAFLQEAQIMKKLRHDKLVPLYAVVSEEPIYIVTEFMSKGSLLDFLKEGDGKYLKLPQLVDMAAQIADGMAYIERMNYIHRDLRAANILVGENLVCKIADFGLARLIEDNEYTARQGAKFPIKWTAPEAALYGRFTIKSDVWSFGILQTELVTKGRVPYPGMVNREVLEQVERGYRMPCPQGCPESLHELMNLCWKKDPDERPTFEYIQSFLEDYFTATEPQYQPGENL
experiment: ADP-Glo kinase assay, inhibition rates of Yes phosphorylation activity (first and second screening)
Format: biochemical
measurement-context: first screening; mean of n = 4 wells; 10 μmol L−1 compound
Output Y for First screening IR (inhibition rate) not less than 10%; output N otherwise.

INSERT INTO assay_data (compound, category_label) VALUES
  ('Fc1ccc(-c2cc(-c3ccc(Cl)cc3)c3ccccc3n2)cc1 [Compound Z1270166647]', 'Y'),
  ('COc1ccc(C)cc1N1CC(C(=O)Nc2ccc3c(ccn3CCN3CCOCC3)c2)CC1=O (stereo not shown) [Compound Z961849222]', 'Y'),
  ('O=c1[nH]c(SCc2coc(-c3ccccc3)n2)nc2sccc12 [Compound Z228473210]', 'N'),
  ('CCc1nc2ccccc2c(C(=O)OCC(=O)Nc2cc(C(N)=O)cc(C(N)=O)c2)c1C [Compound Z19092990]', 'N'),
  ('CC(CNc1ncnc2c1cnn2CCO)Cn1cccn1 (stereo not shown) [Compound Z990883644]', 'Y'),
  ('CCn1ncc2c(C(=O)OCC#N)cc(-c3cccs3)nc21 [Compound Z227189870]', 'N'),
  ('Cn1c(=O)c2cc(C(=O)Nc3ccc(F)c(Cl)c3)sc2n(C)c1=O [Compound Z818806818]', 'N'),
  ('CC(C)c1noc(C(C)S(=O)(=O)C/C=C/c2ccccc2)n1 (stereo not shown) [Compound Z436400008]', 'N'),
  ('O=C(Nc1n[nH]c(-c2ccoc2)n1)c1cc(-c2ccc(F)cc2)on1 [Compound Z1426521974]', 'N'),
  ('CNS(=O)(=O)c1cc(C(=O)N2CCN(Cc3cc(OC)ccc3OC)CC2)ccc1Cl [Compound Z26970092]', 'Y'),
  ('COc1ccc(/C=C2/CC(C)Cc3c2nc2ccccc2c3C(=O)OCC(N)=O)cc1 (stereo not shown) [Compound Z15674725]', 'Y'),
  ('Cl.Oc1c(-c2ccccc2)nc2ccc(Cl)cc2c1-c1ccccc1 [Compound Z166605136]', 'N'),
  ('COc1cccc(OCCN2CCN(c3cc(C(C)(C)C)nc4c(-c5ccc(F)cc5)c(C)nn34)CC2)c1 [Compound Z439257332]', 'N'),
  ('N#C/C(=C(/O)COC(=O)c1cc(F)c(F)cc1Cl)c1nc2ccccc2[nH]1 [Compound Z18771813]', 'N');

---

Reported First screening IR (inhibition rate) by item:
assayed-target: human recombinant Yes [a.a. 2–543 (end)] (Homo sapiens, UniProt P07947)
Construct: human recombinant Yes [a.a; 2–543 (end)]; purchased BPS Bioscience 40488
experiment: ADP-Glo kinase assay, inhibition rates of Yes phosphorylation activity (first and second screening)
Format: biochemical
measurement-context: first screening; mean of n = 4 wells; 10 μmol L−1 compound
result-type: First screening IR (inhibition rate)

INSERT INTO results (compound, assayed_target, result_type, reported) VALUES
  ('Cn1c(=O)[nH]c(=O)c2c1nc(N1CCC(Cc3ccccc3)CC1)n2CCSc1nnnn1-c1ccccc1', 'human recombinant Yes [a.a. 2–543 (end)] (Homo sapiens, UniProt P07947)', 'First screening IR (inhibition rate)', '2%'),
  ('COc1ccc(-c2noc(/C=C/c3cncc(O)c3)n2)cc1', 'human recombinant Yes [a.a. 2–543 (end)] (Homo sapiens, UniProt P07947)', 'First screening IR (inhibition rate)', '3%'),
  ('COc1cc(Br)c(CN(C)CCc2cnccn2)c(OC)c1', 'human recombinant Yes [a.a. 2–543 (end)] (Homo sapiens, UniProt P07947)', 'First screening IR (inhibition rate)', '7%'),
  ('CCCCOc1ccc(/C=C2/C(=O)Nc3ccc(Cl)cc32)cc1', 'human recombinant Yes [a.a. 2–543 (end)] (Homo sapiens, UniProt P07947)', 'First screening IR (inhibition rate)', '6%'),
  ('Cc1cc(C(=O)/C(C#N)=C2\C(=O)Nc3c(Cl)cc(Cl)cc32)c(C)n1-c1cccc(C(F)(F)F)c1', 'human recombinant Yes [a.a. 2–543 (end)] (Homo sapiens, UniProt P07947)', 'First screening IR (inhibition rate)', '-23%'),
  ('O=S(=O)(c1ccccc1Cl)N1CCN(Cc2cn3ccccc3n2)CC1', 'human recombinant Yes [a.a. 2–543 (end)] (Homo sapiens, UniProt P07947)', 'First screening IR (inhibition rate)', '15%'),
  ('COc1ccc(-n2ccc(C(=O)N3CCCCC3c3cn[nH]c3)n2)cc1 (centres unmarked)', 'human recombinant Yes [a.a. 2–543 (end)] (Homo sapiens, UniProt P07947)', 'First screening IR (inhibition rate)', '5%'),
  ('CC(Nc1ccc(C#N)cn1)c1ccc(OCc2cccnc2)cc1 (centres unmarked)', 'human recombinant Yes [a.a. 2–543 (end)] (Homo sapiens, UniProt P07947)', 'First screening IR (inhibition rate)', '2%');

---

assayed-target: human recombinant Yes [a.a. 2–543 (end)] (Homo sapiens, UniProt P07947)
Construct: human recombinant Yes [a.a; 2–543 (end)]; purchased BPS Bioscience 40488
experiment: ADP-Glo kinase assay, inhibition rates of Yes phosphorylation activity (first and second screening)
Assay type: biochemical
measurement-context: first screening; mean of n = 4 wells; 10 μmol L−1 compound
Entries annotated with measured First screening IR (inhibition rate)
result-type: First screening IR (inhibition rate) (%)

INSERT INTO results (molecule, result_type, reported) VALUES
  ('CC(NC(=O)CCc1c[nH]c2ccccc12)c1cc2ccccc2o1 (centres unmarked)', 'First screening IR (inhibition rate)', 1),
  ('Cc1ccc(Cn2c(=O)c3ccccc3n3c(CCC(=O)NCCCN4CCC(C)CC4)nnc23)cc1', 'First screening IR (inhibition rate)', 18),
  ('Cc1c(C#N)c(NC(=O)CN2CCC(n3c(=O)[nH]c4ccccc43)CC2)n(Cc2ccco2)c1C', 'First screening IR (inhibition rate)', 9),
  ('COc1ccc(-n2nnc3c4c(c(Nc5ccc(C)cc5)cc32)C(=O)c2ccccc2C4=O)cc1', 'First screening IR (inhibition rate)', 7),
  ('COc1cc2cc(C3CC(C4CC4)=NN3C(C)=O)c(Cl)nc2cc1OC (centres unmarked)', 'First screening IR (inhibition rate)', -6),
  ('COc1ccc(-c2cc(C(=O)OCc3ccccn3)c3ccccc3n2)cc1OC', 'First screening IR (inhibition rate)', -9),
  ('O=C(CSc1nnc(-c2cccnc2)n1C1CC1)c1ccc2c(c1)OCCCO2', 'First screening IR (inhibition rate)', 5),
  ('COc1ccccc1/C=C1\CC(C)Cc2c1nc1ccccc1c2C(=O)O (centres unmarked)', 'First screening IR (inhibition rate)', -1),
  ('CN1N=C(C(=O)N2CCN(S(=O)(=O)c3ccccc3C(F)(F)F)CC2)CCC1=O', 'First screening IR (inhibition rate)', 7),
  ('O=C(NCCCN1CCCCC1)c1cc(-c2ccccc2)nc2c1cnn2Cc1ccncc1', 'First screening IR (inhibition rate)', -28),
  ('N#CCCn1ncc2c(NC3CCCC(C(F)(F)F)C3)ncnc21 (centres unmarked)', 'First screening IR (inhibition rate)', -12),
  ('O=S(=O)(Nc1cccc(-c2cn3ccccc3n2)c1)c1ccccc1', 'First screening IR (inhibition rate)', 41),
  ('CC1CC(C)CN(S(=O)(=O)c2ccccc2S(C)(=O)=O)C1 (centres unmarked)', 'First screening IR (inhibition rate)', 55),
  ('c1ccc(-c2cn3nc(NCCCN4CCOCC4)sc3n2)cc1', 'First screening IR (inhibition rate)', 11),
  ('CCc1ccc(-n2c(-c3ccccc3)cn3c4c(=O)n(CCN5CCOCC5)c(=O)n(C)c4nc23)cc1', 'First screening IR (inhibition rate)', 39),
  ('Cl.N#Cc1c(-c2ccc(Cl)cc2)nc2ccccc2c1-c1ccccc1', 'First screening IR (inhibition rate)', 2),
  ('Cc1ccc2c(c1)/C(=N/n1cnc3ccccc31)C(=O)N2', 'First screening IR (inhibition rate)', 3),
  ('CN1CCCN(c2nc(C(F)(F)F)nc3c2cnn3Cc2ccccc2)CC1', 'First screening IR (inhibition rate)', -23),
  ('Cn1c(=O)[nH]c(=O)c2c1nc(N1CCN(Cc3ccccc3)CC1)n2CCSc1nnnn1-c1ccccc1', 'First screening IR (inhibition rate)', 47),
  ('NC(=O)c1ccc(COC(=O)CCc2ccc3ccccc3n2)c([N+](=O)[O-])c1', 'First screening IR (inhibition rate)', -4),
  ('Cc1ccc(Cn2c(=O)c3c(nc4n(-c5ccc(S(N)(=O)=O)cc5)c(C)cn34)n(C)c2=O)cc1', 'First screening IR (inhibition rate)', 9),
  ('C=CCN(CC=C)S(=O)(=O)c1cc(C)cc(S(C)(=O)=O)c1C', 'First screening IR (inhibition rate)', 4),
  ('CC(c1ccc(F)c(F)c1)N(C)c1ncnc2c1cnn2C (centres unmarked)', 'First screening IR (inhibition rate)', -1),
  ('O=C(CCNC(=O)c1cccs1)Nc1ccc2nc(-c3cccc(F)c3)[nH]c2c1', 'First screening IR (inhibition rate)', -4),
  ('Cc1ccc(S(=O)(=O)NC(=O)c2cc(C)n(CCCn3ccnc3)c2C)cc1', 'First screening IR (inhibition rate)', -11),
  ('Cc1cc(C(=O)Nc2nc3ccccc3n2C2CCCC2)nn1C', 'First screening IR (inhibition rate)', 9),
  ('Cc1c(C(=O)Nc2ccnn2C2CCCC2)oc2c(Cl)cccc12', 'First screening IR (inhibition rate)', 0),
  ('Cc1cc(N=C2C(=O)Nc3c(Cl)cc(Cl)cc32)ccc1Br', 'First screening IR (inhibition rate)', 1),
  ('CCN(CCNC(=O)CCN1CCN(c2ccccn2)CC1)c1ccccc1C', 'First screening IR (inhibition rate)', 27),
  ('CCCCn1c(CN2CCN(c3ccccn3)CC2)nc2c1c(=O)[nH]c(=O)n2Cc1ccccc1', 'First screening IR (inhibition rate)', 2),
  ('CS(=O)(=O)Cc1ccc(CNc2ccnc3c(F)ccc(F)c23)cc1', 'First screening IR (inhibition rate)', -17),
  ('CSc1ncccc1C(=O)OCC(=O)Nc1nc2ccccc2s1', 'First screening IR (inhibition rate)', -4);
